These entries and their values trace back to PubChem BioAssay (NCI).

system: SNB-75 CNS; test: NCI tumour cell line growth inhibition, 48 h
Experimental Endpoint: TGI

See these solved cases before continuing.
CC(C)=CCC/C(C)=C\CC/C(C)=C/CO    > 100 µM
Cc1ccc2nc(-n3c(/C=C/c4ccccc4O)nc4ccccc4c3=O)sc2c1    > 100 µM
COc1ccc(NC(=S)N=Nc2c(O)[nH]c3ccccc23)cc1    > 78.8 µM
COS(=O)(=O)OCCC(NC(=O)OCc1ccccc1)C(=O)OCc1ccccc1 (stereo not given)    > 100 µM
CC1(C)COC2(OC1)C1=NS(=O)(=O)CC13CCC2C3(C)C (stereo not given)    > 100 µM

Recorded result, Cc1nnc(N)nc1/C=C\c1ccc(N(C)C)cc1 , TGI: > 100 µM

Recorded result, COC1=CC(=C(C#N)C(=Nc2ccccc2)SC)C=C(OC)C1=O , TGI: > 100 µM

Recorded result, Cc1c(C(=O)O)nc(/C=C/C(=O)O)[nH]c1=O , TGI: > 100 µM

Recorded result, Cc1occc(=O)c1O , TGI: > 100 µM

Recorded result, COc1ccc(/C=C2\N=C(SC)N(C)C2=O)cc1 , TGI: > 100 µM

---

tested on: COLO 205 colon; test: NCI tumour cell line growth inhibition, 48 h
Quick reference for TGI among some molecules

COc1ccc(NC(=S)N=Nc2c(O)[nH]c3ccccc23)cc1    > 100 µM
O=S(=O)(O)c1ccc(N=Nc2ccc(N=Nc3c(O)ccc4ccccc34)c(S(=O)(=O)O)c2)cc1    > 100 µM

Recorded result, Clc1ccc(Nc2nn3c(CCCCCCCCc4nnc5sc(Nc6ccc(Cl)cc6)nn45)nnc3s2)cc1 , TGI: > 100 µM

---

tested on: HOP-62 NSCLC; experiment: NCI tumour cell line growth inhibition, 48 h
Quick reference for TGI among some compounds

See these solved cases before continuing.
CCCCCc1cc2cc3c(c(O)c2c(=O)[nH]1)C1(CC3)C(O)=c2c(=O)c3c(=O)cc(OC)c(=O)c=3c(=O)c2=C1O (stereo not drawn)    12.8 µM
Cc1ccc(-c2cc3c(NC(=O)C4CC4)ncnc3o2)cc1    > 25 µM

Recorded result, COCCCN(Cc1cc(OC)c(OC)c(OC)c1)C(=S)Nc1cccc(Cl)c1 , TGI: > 100 µM

---

tested on: DU-145 prostate; test: NCI tumour cell line growth inhibition, 48 h
Experimental Endpoint: TGI

See these solved cases before continuing.
COc1ccc(-c2nc3ccccc3c(=O)[nH]2)c(OC)c1    > 100 µM
Cc1ccc2nc(-n3c(/C=C/c4ccccc4O)nc4ccccc4c3=O)sc2c1    > 100 µM

Field TGI (DU-145 prostate), entry COC(=O)C(CCC1C=CN(S(=O)(=O)c2ccc(C)cc2)C1)N=Cc1ccccc1 (centres undefined) : > 100 µM

Field TGI (DU-145 prostate), entry Cc1cc2c(c(C)c1O)C(C)(C)CN2C(=O)C(C)(C)C : > 100 µM

---

Quick reference for TGI among some compounds
test system: NCI-H460 lung; test: NCI tumour cell line growth inhibition, 48 h

CN1C(=O)N(C)C2C1NN=c1s/c(=C\c3ccccc3F)c(=O)n12 (centres undefined)    > 100 µM
COc1ccc(N2C(=O)CC(=O)N(C(=O)CCCCCCCCC(=O)N3C(=O)CC(=O)N(c4ccc(OC)cc4)C3=S)C2=S)cc1    > 100 µM

Recorded result, O=C(CSc1nccc(=O)[nH]1)c1ccccc1 , TGI: > 100 µM

Recorded result, CN(C)C=Nc1ccc2nonc2c1 , TGI: > 100 µM

Recorded result, CNC(=S)N/N=C(\C)c1cc(OC)ccc1O , TGI: > 100 µM

Recorded result, CC1=CC(=O)C(=C(C)C)CC1 , TGI: > 100 µM

Recorded result, COP1(=O)OCc2cnccc2O1 (centres undefined) , TGI: > 100 µM

Recorded result, Cn1c2c(c3ccc(-c4ccn[nH]4)cc3c1=O)C(=O)c1ccccc1-2 , TGI: 3.37 µM

Recorded result, CCCc1cc2c(cc1O)CC[C@@H]1[C@@H]2CC[C@]2(C)[C@@H](O)CC[C@@H]12 , TGI: 24.4 µM
